Measured Potency, listed per entry for reference.
# System name: Glucocorticoid receptor (Homo sapiens)
# Method description: GR-GFP Redistribution (AID 450); also: potency is read from the fitted curve at half-maximal effect
# Condition: U2OS GR-GFP nuclear translocation, laser cytometry, 2 h
Activity calls are given as the source filed them.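 The calls were made as follows: active = compounds whose dose series gives a full or clear partial fitted curve of increased nuclear translocation; inconclusive = weak partial curve or effect only at the top dose; inactive = no dose-dependent translocation response.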
Measurement kind: Potency

Molecule	Val
OCCOCC#CCN1CCOCC1	> 20.6 µM (inactive)
CC[C@]1(O)C(=O)OCc2c1cc1n(c2=O)Cc2cc3ccccc3nc2-1	> 46 µM (inactive)
O=c1cccc2n1C[C@@H]1C[C@H]2CN2CCCC[C@H]12	> 46 µM (inactive)
Oc1cc2c(cc1O)[C@H]1c3ccccc3CN[C@@H]1CC2	> 46 µM (inactive)
COc1ccc(-n2c(SC)nc3ccccc3c2=O)cc1	> 20.6 µM (inactive)
CN1C(=O)CN=C(c2ccc(Cl)cc2)c2cc(Cl)ccc21	> 20.6 µM (inactive)
CN1CCC(OC(=O)C2c3ccccc3Oc3ccccc32)CC1	> 20.6 µM (inactive)
C/C=C(\C)C(=O)O[C@@H]1C(C)=C2[C@H]([C@@H]1OC(=O)CCCCCCC)[C@@](C)(OC(C)=O)C[C@@H](OC(=O)CCC)[C@@]1(O)[C@H]2OC(=O)[C@]1(C)O	> 46 µM (inactive)
COCC(C)OC(=O)c1c(N)n(Cc2ccco2)c2nc3ccccc3nc12 (centres undefined)	> 20.6 µM (inactive)
CN(C)CCc1nn[nH]n1	> 20.6 µM (inactive)
C[C@H](N)c1cccc(Cl)c1Cl	> 46 µM (inactive)
CC1=C2[C@@H]3OC(=O)[C@H](C)[C@H]3CC[C@@]2(C)C=CC1=O	> 46 µM (inactive)
O=C1c2ccccc2C(=O)N1Cc1nc2ccccc2c(=O)n1-c1cccnc1	> 20.6 µM (inactive)
COc1cc2c(cc1OC)-c1c(O)c(OC)cc3c1[C@@H](C2)N(C)CC3	> 46 µM (inactive)
O=c1[nH]c(=O)n(C2CCCCC2)c(O)c1C=NCCCn1ccnc1	> 20.6 µM (inactive)
COC1=C[C@H]2[C@@H]3Cc4ccc(OC)c(O)c4[C@@]2(CCN3C)CC1=O	> 46 µM (inactive)
O=c1[nH]c(=O)n(CCc2ccccc2)c(O)c1C=NCCCn1ccnc1	> 20.6 µM (inactive)
Cc1ccc2c(c1)[C@@H]1CN(C)CC[C@@H]1N2C(=O)Nc1cccc(C(F)(F)F)c1	> 20.6 µM (inactive)
COc1ccc2c(c1O)-c1c(OC)c(OC)cc3c1[C@@H](C2)N(C)CC3	> 46 µM (inactive)

FYI, the data here is from PubChem BioAssay (NCATS).
